// data source = PubChem BioAssay AID2060898

Test system: 616215-338-R-J1-PDC complex spheroid viability;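 note: spheroids exposed to agents for seven days before viability readout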
Experiment: Anticancer human tumor 616215-338-R-J1-PDC patient-derived colon adenocarcinoma cell line growth inhibition [RAS]
Settings: second compound 0.316 µM; first compound 10 µM; hits give low values
viability, T/C strictly under 20% means MET; at 20% or over means NOT MET.

CC1(O)CCCC1n1c(=O)c(C(F)F)cc2cnc(NC3CCN(S(C)(=O)=O)CC3)nc21 (centres undefined) + C=CC(=O)N1CCN(c2nc(OCC3CCCN3C)nc3c(F)c(-c4nc(N)cc(C)c4C(F)(F)F)c(Cl)cc23)C(C)C1	MET

API: query returns whether the molecule falls strictly under 20% in viability, T/C. Query: CC(=O)OC12COC1CC(O)C1(C)C(=O)C(O)C3=C(C)C(OC(=O)C(O)C(NC(=O)OC(C)(C)C)c4ccccc4)CC(O)(C(OC(=O)c4ccccc4)C21)C3(C)C (centres undefined) + C#Cc1c(F)ccc2cc(O)cc(-c3ncc4c(N5CC6CCC(C5)N6)nc(OCC56CCCN5CC(F)C6)nc4c3F)c12
NOT MET

Please give the result for CC(Nc1ccc2c(c1)OCCn1cc(N3C(=O)OCC3C(F)F)nc1-2)C(N)=O (centres undefined) + C=CC(=O)N1CCN(c2nc(OCC3CCCN3C)nc3c(F)c(-c4nc(N)cc(C)c4C(F)(F)F)c(Cl)cc23)C(C)C1 too.
NOT MET

Please give the result for C[C@@H](NC(=O)c1ncnc(N)c1Cl)c1ncc(C(=O)Nc2cc(C(F)(F)F)c(Cl)cn2)s1 + C=CC(=O)N1CCN(c2nc(OCC3CCCN3C)nc3c(F)c(-c4nc(N)cc(C)c4C(F)(F)F)c(Cl)cc23)C(C)C1 too.
NOT MET

Please give the result for CCC(CC)c1cc(NC2CCC(N)C2)n2nccc2n1 (centres undefined) + C=CC(=O)N1CCN(c2nc(OCC3CCCN3C)nc3c(F)c(-c4nc(N)cc(C)c4C(F)(F)F)c(Cl)cc23)C(C)C1 too.
MET
